Give measured kon for each item. Keep answers brief.
STUDY SYSTEM: T1, recombinant HIS-tagged rat nectin-4 (R&D Systems Cat. No. 9997-N4-050) (rat, UniProt D3ZET1 31-348)
T1 construct: Bought protein; HIS tag not described
T1 sequence: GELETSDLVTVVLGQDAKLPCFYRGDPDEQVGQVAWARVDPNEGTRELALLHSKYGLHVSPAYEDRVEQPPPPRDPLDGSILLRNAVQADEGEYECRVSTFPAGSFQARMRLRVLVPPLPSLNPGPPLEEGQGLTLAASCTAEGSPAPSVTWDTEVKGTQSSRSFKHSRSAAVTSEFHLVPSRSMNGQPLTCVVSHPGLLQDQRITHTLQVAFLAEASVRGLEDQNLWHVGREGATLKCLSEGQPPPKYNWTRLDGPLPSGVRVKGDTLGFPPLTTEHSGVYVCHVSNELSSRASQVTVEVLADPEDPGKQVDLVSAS
TEST: SPR Biacore 8K+, ADC captured via anti-human Fc, nectin-4 analyte, 37 C;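 also: Nectin-4 injected over captured ADC at 0 to 600 nM for 2 min association, then 10 min dissociation, with a reference flow cell lacking ADC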
Give bare numbers, in M⁻¹ s⁻¹.

INSERT INTO results (binder, unit_descriptor, result_value) VALUES
  ('Ab1a ADC (Ab1a conjugated as in Formula XI, DAR of 8) (antibody, human IgG1, kappa, L234A L235A, V domains shown, camptothecin analog linker-payload of Formula XI on cysteine thiols after full reduction, DAR of 8 per antibody; positions not given, Antibody-drug conjugate of Ab1a; also called Ab1a (ADC column)) VH: QVQLVQSGAQVKKPGASVKVSCKASGYTFTGYYIHWVRQAPGQGLEWMGWINPNSGGTNYAQKFQGRVTMTRDTSISTAYMELSRLRSDDTAVYFCAREDWDFDYWGQGTLVTVSS VL: EIVLTQSPGTLSLSPGERATLSCRTSQSVSSSYLAWYQQKPGQAPRLLIYGASNRATDIPDRFSGSGSGTDFTLTINRLEPEDFAVYYCQQYGSSPITFGQGTRLEIKR', 'M⁻¹ s⁻¹', 252000),
  ('Ab3 ADC (Ab3 conjugated as in Formula XI, DAR of 8) (antibody, human IgG1, kappa, L234A L235A, V domains shown, camptothecin analog linker-payload of Formula XI on cysteine thiols after full reduction, DAR of 8 per antibody; positions not given, Antibody-drug conjugate of Ab3; also called Ab3 (ADC column)) VH: EVQLVESGGGLVKPGGSLRLSCAASGFNLNHYNMNWVRQAPGKGLEWVSSVSSGGGFRYYADSVRGRFTISRDNAKNSLYLQMNSLRAEDTAVYYCARGAVFHDAFDIWGQGTLVTVSS VL: DIQLTQSPSFLSASVGDRVTITCRASQDISSYLAWYQQKPGKAPKLLIYVASTLQSGVPSRFSGSGSGTEFTLTISSLQPEDFATYYCQQINSYPFTFGQGTKVEIKR', 'M⁻¹ s⁻¹', 171000),
  ('Ab8 ADC (Ab8 conjugated as in Formula XI, DAR of 8) (antibody, human IgG1, lambda, L234A L235A, V domains shown, camptothecin analog linker-payload of Formula XI on cysteine thiols after full reduction, DAR of 8 per antibody; positions not given, Antibody-drug conjugate of Ab8; also called Ab8 (ADC column)) VH: QVQLVQSGAEVKKPGASVKVSCKASGYTFTSYYIHWVRQAPGQGLEWMGIINPISGRTSSAQKFQGRVTMTRDTSTSTVYMELSSLRSEDTAVYYCAKEGVGGELLRAFDIWGQGTLVTVSS VL: QSVLTQPPSVSEAPRQRVTISCSGSSSNIGNNAVNWYQQLPGKAPKLLIYYDDLLPSGVSDRFSGSKSGTSASLAISGLQSEDEADYYCAAWDDSLNGFVFGGGTKLTVLG', 'M⁻¹ s⁻¹', 482000),
  ('Ab6 ADC (Ab6 conjugated as in Formula XI, DAR of 8) (antibody, human IgG1, lambda, L234A L235A, V domains shown, camptothecin analog linker-payload of Formula XI on cysteine thiols after full reduction, DAR of 8 per antibody; positions not given, Antibody-drug conjugate of Ab6; also called Ab6 (ADC column)) VH: QVQLVQSGAEVKKPGASVKVSCKASGYTFTGYYMHWVRQAPGQGLEWMGIINPSGGSTTYAQKFQGRVTMTRDTSTSTVYMELSSLRSEDTAVYYCARGRLGTYFDYWGQGTLVTVSS VL: SYVLTQPPSVSVAPGQTARITCGGNNIGSKSVHWYQQKPGQAPVLVVYDDSDRPSGIPERFSGSNSGNTATLTISRVEAGDEADYYCQVWDRSSDQVVFGGGTKLTVLG', 'M⁻¹ s⁻¹', 925000),
  ('Ab7 ADC (Ab7 conjugated as in Formula XI, DAR of 8) (antibody, human IgG1, lambda, L234A L235A, V domains shown, camptothecin analog linker-payload of Formula XI on cysteine thiols after full reduction, DAR of 8 per antibody; positions not given, Antibody-drug conjugate of Ab7; also called Ab7 (ADC column)) VH: QVQLVQSGAEVKKPGASVKVSCKASGYTFTNYYMHWVRQAPGQGLEWMGIINPSSGSASYAQKFQGRVTMTRDTSTSTVYMELSSLRSEDTAVYYCAREGVGRDILQAFDIWGQGTLVTVSS VL: QSVLTQPPSVSEAPRQRVTISCSGSSSNIGNNAVNWYQQLPGKAPKLLIYYDDLLPSGVSDRFSGSKSGTSASLAISGLQSEDEADYYCAAWDDSLNGHVFGGGTKLTVLG', 'M⁻¹ s⁻¹', 404000);

Query string: Return reported kon. Input binder: Ab5 ADC (Ab5 conjugated as in Formula XI, DAR of 8) (antibody, human IgG1, kappa, L234A L235A, V domains shown, camptothecin analog linker-payload of Formula XI on cysteine thiols after full reduction, DAR of 8 per antibody; positions not given, Antibody-drug conjugate of Ab5; also called Ab5 (ADC column)) VH: QVQLVQSGAEVKKPGASVKVSCKASGYTFTSYYVHWVRQAPGQGLEWMGIINPSIISTSYAQKFQARVTMTRDTSTSTVYMELSSLRSEDTAVYYCARGLNFDAFDIWGQGTLVTVSS VL: DIQLTQSPSFLSASVGDRVTITCRASQGISSYLAWYQQKPGKAPKLLIYAASTLQSGVPSRFSGSGSGTEFTLTISSLQPEDFATYYCQQLNNYPFTFGQGTKVEIKR
Result string: 636000

Origin of measurements: patent US20250000991A1
